# Species: Cavia porcellus
# test: Determined for potency (muscarinic agonistic activity) expressed in guinea pig ileum in vitro
# Type: functional
endpoint-name: EC50 (µM)
Give bare numbers, in µM.

Challenge: Which EC50 value belongs to CC1OCC2(CN3CCC2CC3)O1 (configuration not stated) ?
Response given: 6.31

====

# system: Muscarinic acetylcholine receptor M1 (Rattus norvegicus) (UniProt P08482)
# Sequence (P08482 whole entry): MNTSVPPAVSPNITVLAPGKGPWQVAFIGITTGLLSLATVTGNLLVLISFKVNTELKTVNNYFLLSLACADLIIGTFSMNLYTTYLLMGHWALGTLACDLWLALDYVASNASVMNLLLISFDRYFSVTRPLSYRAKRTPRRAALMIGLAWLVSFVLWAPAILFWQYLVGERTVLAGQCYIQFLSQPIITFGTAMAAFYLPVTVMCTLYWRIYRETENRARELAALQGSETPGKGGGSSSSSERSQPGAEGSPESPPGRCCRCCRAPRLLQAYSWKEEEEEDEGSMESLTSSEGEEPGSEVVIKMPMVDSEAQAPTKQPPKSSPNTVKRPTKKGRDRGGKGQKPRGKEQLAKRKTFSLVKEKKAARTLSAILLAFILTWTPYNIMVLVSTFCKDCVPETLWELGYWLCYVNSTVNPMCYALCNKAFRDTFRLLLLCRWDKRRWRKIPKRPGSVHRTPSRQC
K app of 30 µM or higher: true (1). Under 30 µM: false (0).

- compound: "C[C@@H]1OCC2(CN3CCC2CC3)O1 (stereo in doubt; 1A1)"
  class-assignment: "true (1)"

Challenge: Assess whether reported K app for `C[N+](C)(C)CCOC(N)=O.[Cl-]` sits at 30 µM or higher.
Response given: true (1)

Challenge: Assess whether reported K app for C[C@H]1OCC2(CN3CCC2CC3)O1 (stereo in doubt; 1B1) sits at 30 µM or higher.
Response given: false (0)

Challenge: Assess whether reported K app for C[C@@H]1OCC2(CN3CCC2CC3)O1.C[C@H]1OCC2(CN3CCC2CC3)O1 (some centres not stated) sits at 30 µM or higher.
Response given: false (0)

Challenge: Assess whether reported K app for `C[C@@H]1O[C@H](C[N+](C)(C)C)C[C@H]1O` sits at 30 µM or higher.
Response given: false (0)

Challenge: Assess whether reported K app for CC1OCC2(CN3CCC2CC3)O1 (single isomer, unassigned) sits at 30 µM or higher.
Response given: true (1)

Challenge: Assess whether reported K app for C[C@@H]1OCC2(CN3CCC2CC3)O1 (stereo in doubt; 1B2) sits at 30 µM or higher.
Response given: false (0)

====

I'd be grateful if you could share measured FE for these entries.
# Organism: Rattus norvegicus
# test: Determined for Functional efficacy compared to 1 uM muscarine in superior cervical ganglion
Numbers only.

- compound: "C[C@@H]1O[C@H](C[N+](C)(C)C)C[C@H]1O [MUSCARINE]"
  FE: 1.1

Batch of 4 compounds: report FE for each.
1. C[C@@H]1OCC2(CN3CCC2CC3)O1 (stereo in doubt; 1B2)
2. C[C@@H]1OCC2(CN3CCC2CC3)O1.C[C@H]1OCC2(CN3CCC2CC3)O1 (stereo not given in full)
3. C[C@H]1OCC2(CN3CCC2CC3)O1 (stereo in doubt; 1B1)
4. CC1OCC2(CN3CCC2CC3)O1 (stereo not given)

Response given:
0.7
0.7
0.8
0.7
